Measured pIC50 values are reported for all entries that follow.
assay.system: SMYD3 (Homo sapiens (Human), UniProt Q9H7B4)
Sequence (Q9H7B4 whole entry): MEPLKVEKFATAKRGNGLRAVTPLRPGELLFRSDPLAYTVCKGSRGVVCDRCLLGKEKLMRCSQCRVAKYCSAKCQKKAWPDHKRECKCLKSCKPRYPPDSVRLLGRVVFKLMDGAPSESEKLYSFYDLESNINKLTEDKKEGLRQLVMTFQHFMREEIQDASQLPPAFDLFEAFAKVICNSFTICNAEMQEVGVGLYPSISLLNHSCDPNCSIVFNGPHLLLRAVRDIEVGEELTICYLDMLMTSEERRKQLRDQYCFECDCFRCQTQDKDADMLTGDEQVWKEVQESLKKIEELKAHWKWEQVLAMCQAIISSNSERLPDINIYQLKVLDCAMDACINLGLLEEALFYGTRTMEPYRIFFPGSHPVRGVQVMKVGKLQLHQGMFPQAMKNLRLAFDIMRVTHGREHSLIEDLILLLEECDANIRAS
protocol.notes: SMYD3 biochemical assay (SMYD3 enzyme assay on MEKK2 protein substrate, 3H-SAM scintillation proximity assay)
condition.context: read-out: SMYD3 Biochem IC50
// pIC50: -log10(molar conc.)

The cases that follow already have their pIC50 on record.
# molecule, pIC50
measured = [
    ("CC(NC(=O)Cc1cccc(C(F)(F)F)c1)C1CCN(C(=O)[C@H](C)N)CC1 (stereo partly drawn)", 4.29),
    ("NCCC(=O)N[C@H]1CC[C@H](NC(=O)Cc2cccc(C(F)(F)F)c2)CC1", 4.64),
    ("NCCC(=O)N[C@H]1CC[C@H](NC(=O)c2nc3ccc(F)cc3s2)CC1", 4.06),
]

Now consider a different molecule.
pIC50 reported for this molecule "Cc1cccc2cc(C(=O)N[C@H]3CC[C@H](NC(=O)CCN)CC3)[nH]c12" : 4.42

* * *

assay.system: SMYD3 (Homo sapiens (Human))
protocol.notes: SMYD3 cell assay (Trimethyl-MEKK2 In-Cell Western in 293T/17 cells transfected with MEKK2-flag and SMYD3)
Format: cell-based
condition.context: Table 3A; average of n = 1 to n = 50; read-out: SMYD3 cell IC50
pIC50: −log10 of the molar value.
Label 1 (yes) when pIC50 is at or above 6; otherwise label 0 (no).

# compound, group.label
data = [
    ("O=C1Cc2cc(C(=O)N[C@H]3C[C@H]4CC[C@@H](C3)N4S(=O)(=O)CC3CCN(CCCO)CC3)ccc2N1", "0 (no)"),
]

Ask: Say whether "CCc1cnnc(C(=O)N[C@H]2CCN(S(=O)(=O)N3CCC(N)CC3)[C@@H](C)C2)c1" shows pIC50 of 6 or more.
Reply: 1 (yes)

Ask: Say whether "C[C@H]1C[C@@H](NC(=O)c2cc3c(cc2Cl)NC(=O)C3)CCN1S(=O)(=O)c1ccc(C(C)(C)N)cc1" shows pIC50 of 6 or more.
Reply: 1 (yes)

Ask: Say whether C[C@H]1CN(S(=O)(=O)N2CCC(N)CC2)CCC1NC(=O)c1cc2c(cc1Cl)NC(=O)C2 (some centres unmarked) shows pIC50 of 6 or more.
Reply: 0 (no)

Ask: Say whether "CN1C(=O)Cc2cc(C(=O)N[C@H]3C[C@H]4CC[C@@H](C3)N4S(=O)(=O)CC3CCNCC3)ccc21" shows pIC50 of 6 or more.
Reply: 0 (no)

* * *

assay.system: SMYD3 (Homo sapiens (Human), UniProt Q9H7B4)
protocol.notes: SMYD3 biochemical assay (SMYD3 enzyme assay on MEKK2 protein substrate, 3H-SAM scintillation proximity assay)
condition.context: read-out: SMYD3 Biochem IC50 (μM)*
Text: S-adenosylmethionine (SAM), S-adenosylhomocysteine (SAH), Tris, Tween20, dimethylsulfoxide (DMSO), bovine skin gelatin (BSG), and Tris(2-carboxyethyl)phosphine hydrochloride solution (TCEP) were purchased from Sigma-Aldrich at the highest level of purity possible. ^3H-SAM was purchase from American Radiolabeled Chemicals with a specific activity of 80 Ci/mmol. 384-well opaque white OptiPlates and SPA beads (Perkin Elmer, catalog # RPNQ0013) were purchased from PerkinElmer. […]
parameter.measured: IC50 (µM)
Express the result in µM but write the number alone.

# test.smiles, IC50 [µM]
measured = [
    ("N[C@H]1CC[C@H](NC(=O)c2ccc3cnccc3c2)CC1", 20.7),
]

Now consider a different molecule.
Form field IC50 for item "NCCCCNC(=O)c1ccc2c(c1)CC(=O)N2" on SMYD3 (Homo sapiens (Human), UniProt Q9H7B4): 13.4

* * *

assay.system: SMYD3 (Homo sapiens (Human))
protocol.notes: SMYD3 biochemical assay (SMYD3 enzyme assay on MEKK2 protein substrate, 3H-SAM scintillation proximity assay)
condition.context: read-out: SMYD3 Biochem IC50
pIC50: −log10 of the molar value.
parameter.measured: pIC50

The cases that follow already have their pIC50 on record.
# compound, pIC50
rows = [
    ("CC(NC(=O)c1ccc(O)nn1)C1CCN(C(=O)[C@H](C)N)CC1 (stereo partly shown) [compound 191]", "< 4.00"),
    ("CC(NC(=O)c1n[nH]c2ccccc12)C1CCN(C(=O)[C@H](C)N)CC1 (stereo partly shown) [compound 312]", "< 4.00"),
    ("NC1CCN(S(=O)(=O)N2[C@@H]3CC[C@H]2C[C@@H](NC(=O)c2ccc4c(c2)CC(=O)N4)C3)CC1 [compound 578]", 9.17),
]

Form field pIC50 for item N[C@H]1CC[C@H](NC(=O)c2cc(=O)c3ccccc3o2)CC1 [compound 277] on SMYD3 (Homo sapiens (Human)): < 4.00

Form field pIC50 for item COc1cc(C(=O)NC(C)C2CCN(C(=O)[C@H](C)N)CC2)c2ccccc2n1 (stereo partly shown) [compound 221] on SMYD3 (Homo sapiens (Human)): < 4.00

Form field pIC50 for item NCCC(=O)N[C@H]1CC[C@H](NC(=O)Cc2c[nH]c3cccnc23)CC1 [compound 407] on SMYD3 (Homo sapiens (Human)): < 4.00

* * *

Measured IC50 values are reported for all entries that follow.
assay.system: SMYD3 (Homo sapiens (Human), UniProt Q9H7B4)
protocol.notes: SMYD3 biochemical assay (SMYD3 enzyme assay on MEKK2 protein substrate, 3H-SAM scintillation proximity assay)
condition.context: read-out: SMYD3 Biochem IC50

# molecule, IC50
rows = [
    ("N[C@H]1CC[C@H](NC(=O)c2cc3cc(F)ccc3[nH]2)CC1 [compound 242]", "> 100 µM"),
    ("N[C@H]1CC[C@H](NC(=O)c2cc3ccccc3nc2O)CC1 [compound 475]", "22.2 µM"),
    ("N[C@H]1CC[C@H](NC(=O)c2ccc(-n3cncn3)cc2)CC1 [compound 455]", "> 100 µM"),
    ("CC(NC(=O)c1cn2ccsc2n1)C1CCN(C(=O)[C@H](C)N)CC1 (stereo partly drawn) [compound 239]", "> 100 µM"),
    ("NCCC(=O)N[C@H]1CC[C@H](NC(=O)[C@H]2C[C@H](O)CN2)CC1 [compound 434]", "> 100 µM"),
]

IC50 reported for this molecule NCCC(=O)N[C@H]1CC[C@H](NC(=O)c2cccc3c2CC(=O)N3)CC1 [compound 430] : > 100 µM

IC50 reported for this molecule CC1Oc2ccc(C(=O)N[C@H]3CC[C@H](NC(=O)CCN)CC3)cc2NC1=O (stereo partly drawn) [compound 451] : 9.9 µM

IC50 reported for this molecule CC(NC(=O)CCCn1ccnc1)C1CCN(C(=O)[C@H](C)N)CC1 (stereo partly drawn) [compound 241] : 82.9 µM

IC50 reported for this molecule NCCC(=O)N[C@H]1CC[C@H](NC(=O)c2cnccc2N)CC1 [compound 288] : > 100 µM

* * *

assay.system: SMYD3 (Homo sapiens (Human), UniProt Q9H7B4)
protocol.notes: SMYD3 biochemical assay (SMYD3 enzyme assay on MEKK2 protein substrate, 3H-SAM scintillation proximity assay)
condition.context: read-out: SMYD3 Biochem IC50 (μM)*
Measured IC50 values are reported for all entries that follow.

The cases that follow already have their IC50 on record.
# compound, IC50
measured = [
    ("COc1ccc2cc(C(C)C(=O)N[C@H]3CC[C@H](NC(=O)CCN)CC3)ccc2c1 (stereo partly drawn)", "> 100 µM"),
    ("CC(NC(=O)c1ncccn1)C1CCN(C(=O)[C@H](C)N)CC1 (stereo partly drawn)", "> 100 µM"),
]

Now consider a different compound.
Form field IC50 for item "N[C@H]1CC[C@H](NC(=O)c2cccnc2)CC1" on SMYD3 (Homo sapiens (Human), UniProt Q9H7B4): > 100 µM

* * *

assay.system: SMYD3 (Homo sapiens (Human), UniProt Q9H7B4)
protocol.notes: SMYD3 biochemical assay (SMYD3 enzyme assay on MEKK2 protein substrate, 3H-SAM scintillation proximity assay)
condition.context: read-out: SMYD3 Biochem IC50 (μM)*
From the text: S-adenosylmethionine (SAM), S-adenosylhomocysteine (SAH), Tris, Tween20, dimethylsulfoxide (DMSO), bovine skin gelatin (BSG), and Tris(2-carboxyethyl)phosphine hydrochloride solution (TCEP) were purchased from Sigma-Aldrich at the highest level of purity possible. ^3H-SAM was purchase from American Radiolabeled Chemicals with a specific activity of 80 Ci/mmol. 384-well opaque white OptiPlates and SPA beads (Perkin Elmer, catalog # RPNQ0013) were purchased from PerkinElmer. […]
parameter.measured: IC50 (µM)
Express the result in µM but write the number alone.

# molecule, units.symbol, IC50
data = [
    ("CCc1cc(C(=O)N[C@H]2CC[C@H](N)CC2)n(C)n1 [compound 37]", "µM", 59.9),
    ("CCc1ccc(C(=O)NC(c2ccccc2)C2CCNCC2)s1 (stereo not shown) [compound 55]", "µM", 116),
    ("C[C@H](N)C(=O)N1CCC(C)(CNC(=O)c2ccc3c(c2)CC(=O)N3)CC1 [compound 176]", "µM", 3.52),
]

Form field IC50 for item C[C@@H](N)C(=O)N1CC[C@H](CNC(=O)c2ccc3c(c2)CC(=O)N3)C1 [compound 177] on SMYD3 (Homo sapiens (Human), UniProt Q9H7B4): 19.8
